Molecular target: N-terminally FLAG-tagged PARP2 (amino acids 1-583) (Homo sapiens)
Construct: N-terminally FLAG-tagged PARP2 (amino acids 1-583)
Sequence (Q9UGN5 whole entry, the tested form may be a part): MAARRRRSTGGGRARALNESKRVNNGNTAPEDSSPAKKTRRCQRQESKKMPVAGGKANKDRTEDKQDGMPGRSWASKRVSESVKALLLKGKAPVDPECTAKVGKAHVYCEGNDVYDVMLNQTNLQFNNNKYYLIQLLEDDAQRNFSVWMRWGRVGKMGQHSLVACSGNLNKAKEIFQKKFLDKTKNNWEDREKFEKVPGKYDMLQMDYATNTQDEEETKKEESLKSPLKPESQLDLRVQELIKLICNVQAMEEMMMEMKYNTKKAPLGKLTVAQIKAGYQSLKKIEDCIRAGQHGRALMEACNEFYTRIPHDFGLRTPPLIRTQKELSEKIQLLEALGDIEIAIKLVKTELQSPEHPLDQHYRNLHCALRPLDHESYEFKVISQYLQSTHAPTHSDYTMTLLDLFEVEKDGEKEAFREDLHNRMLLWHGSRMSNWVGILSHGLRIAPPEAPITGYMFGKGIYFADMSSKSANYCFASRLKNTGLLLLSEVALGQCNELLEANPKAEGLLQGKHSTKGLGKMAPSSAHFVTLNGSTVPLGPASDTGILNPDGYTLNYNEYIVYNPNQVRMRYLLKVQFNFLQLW
Experiment: PARP2 probe displacement HTRF assay
Type: binding
Details: binned Kd, PARP2 probe displacement HTRF
readout.name: Kd

Field: example entries. Status: answers known.
COCCNC(=O)c1ccc(N2CCC(N3CCCC(c4nc5ccccc5c(=O)[nH]4)C3)CC2)cn1 (single isomer, unassigned) [Compound 116a] :: > 10 µM
CNC(=O)c1ccc(N2CCC(N3CCC(c4nc5ccc(C(F)(F)F)cc5c(=O)[nH]4)C3)CC2)cn1 (single isomer, unassigned) [Compound 161a] :: > 10 µM

Please find the next compound below.
Input CNC(=O)c1ccc(N2CCC(N3CCC(c4cc5nccc(N)c5c(=O)[nH]4)C3)CC2)cn1 (racemic) . Output Kd: > 10 µM

* * *

Target: N-terminally FLAG-tagged PARP2 (amino acids 1-583) (Homo sapiens)
Construct: N-terminally FLAG-tagged PARP2 (amino acids 1-583)
Assay: PARP2 probe displacement HTRF assay
Assay type: binding
Settings: binned Kd, PARP2 probe displacement HTRF
pKd: −log10 of the molar value.
Reported pKd values for a set of molecules

Field: example entries. Status: answers known.
CNC(=O)c1ccc(N2CCC(N3CCC(c4cnc(C)c(=O)[nH]4)C3)CC2)cn1 (racemic) :: < 5.00
CNC(=O)c1ccc(N2CCC(N3CCC(c4nc5c(F)cc(F)cc5c(=O)[nH]4)C3)CC2)cn1 (single isomer, unassigned) [Compound 181b] :: 6.00 to 7.00
CNC(=O)c1cnc(N2CCC(N3CCC(c4nc5ccccc5c(=O)[nH]4)C3)CC2)cn1 (single isomer, unassigned) [Compound 96a] :: 5.00 to 6.00
CCc1ccc(C2CCN(C3CCN(c4cnc(C(=O)NC)cc4C)CC3)C2)[nH]c1=O (single isomer, unassigned) [Compound 217a] :: < 5.00
CNC(=O)c1ccc(N2CCC(N3CCC(c4nc5c(F)cccc5c(=O)[nH]4)C3)CC2)cn1 (single isomer, unassigned) [Compound 121b] :: 6.00 to 7.00

Input CCc1ccc(C2CCN(C3CCN(c4ccc(C(=O)NC)nc4C(F)F)CC3)C2)[nH]c1=O (single isomer, unassigned) [Compound 164b] . Output pKd: < 5.00

Input CNC(=O)c1ccc(N2CCC(N3CCCC(Cc4nc5ccccc5c(=O)[nH]4)C3)CC2)cn1 (single isomer, unassigned) [Compound 57b] . Output pKd: < 5.00

Input CNC(=O)c1ccc(N2CCC(N3CCC(c4nc5ccccc5c(=O)[nH]4)C3)CC2)nc1 (single isomer, unassigned) [Compound 46a] . Output pKd: 5.00 to 6.00

* * *

Molecular target: full length N-terminally FLAG-tagged PARP1 (Homo sapiens)
Experiment: PARP1 biochemical DELFIA assay (auto-PARylation)
Set-up: recombinant full length human N-terminally FLAG-tagged PARP1
Conditions: binned IC50, PARP1 biochemical DELFIA assay
readout.name: IC50

Field: example entries. Status: answers known.
N#Cc1ccc(N2CCC(N3CCC(c4nc5ccccc5c(=O)[nH]4)C3)CC2)nc1 (single isomer, unassigned) [Compound 55a] :: < 10 nM
CNC(=O)c1ccc(N(C)CCCN2CCCC(c3nc4ccccc4c(=O)[nH]3)C2)cn1 (single isomer, unassigned) [Compound 16a] :: 100 to 1000 nM
CNC(=O)c1cnc(N2CCC(N3CCCC(c4nc5ccccc5c(=O)[nH]4)C3)CC2)cn1 (single isomer, unassigned) [Compound 99a] :: 1000 to 10000 nM

Input CNC(=O)c1ccc(N2CCC(N3CCCC(c4ccc(C5CC5)c(=O)[nH]4)C3)CC2)cn1 (single isomer, unassigned) [Compound 126b] . Output IC50: 100 to 1000 nM

Input O=C(NCC(F)(F)F)c1ccc(N2CCC(N3CCC(c4nc5ccccc5c(=O)[nH]4)C3)CC2)cn1 (single isomer, unassigned) [Compound 130b] . Output IC50: < 10 nM

Input CCNC(=O)c1ccc(N2CCC(N3CCC(c4nc5ccccc5c(=O)[nH]4)C3)CC2)cn1 (single isomer, unassigned) [Compound 111a] . Output IC50: 10 to 100 nM

* * *

Biological target: full length N-terminally FLAG-tagged PARP1 (Homo sapiens, UniProt P09874)
Sequence (P09874 whole entry): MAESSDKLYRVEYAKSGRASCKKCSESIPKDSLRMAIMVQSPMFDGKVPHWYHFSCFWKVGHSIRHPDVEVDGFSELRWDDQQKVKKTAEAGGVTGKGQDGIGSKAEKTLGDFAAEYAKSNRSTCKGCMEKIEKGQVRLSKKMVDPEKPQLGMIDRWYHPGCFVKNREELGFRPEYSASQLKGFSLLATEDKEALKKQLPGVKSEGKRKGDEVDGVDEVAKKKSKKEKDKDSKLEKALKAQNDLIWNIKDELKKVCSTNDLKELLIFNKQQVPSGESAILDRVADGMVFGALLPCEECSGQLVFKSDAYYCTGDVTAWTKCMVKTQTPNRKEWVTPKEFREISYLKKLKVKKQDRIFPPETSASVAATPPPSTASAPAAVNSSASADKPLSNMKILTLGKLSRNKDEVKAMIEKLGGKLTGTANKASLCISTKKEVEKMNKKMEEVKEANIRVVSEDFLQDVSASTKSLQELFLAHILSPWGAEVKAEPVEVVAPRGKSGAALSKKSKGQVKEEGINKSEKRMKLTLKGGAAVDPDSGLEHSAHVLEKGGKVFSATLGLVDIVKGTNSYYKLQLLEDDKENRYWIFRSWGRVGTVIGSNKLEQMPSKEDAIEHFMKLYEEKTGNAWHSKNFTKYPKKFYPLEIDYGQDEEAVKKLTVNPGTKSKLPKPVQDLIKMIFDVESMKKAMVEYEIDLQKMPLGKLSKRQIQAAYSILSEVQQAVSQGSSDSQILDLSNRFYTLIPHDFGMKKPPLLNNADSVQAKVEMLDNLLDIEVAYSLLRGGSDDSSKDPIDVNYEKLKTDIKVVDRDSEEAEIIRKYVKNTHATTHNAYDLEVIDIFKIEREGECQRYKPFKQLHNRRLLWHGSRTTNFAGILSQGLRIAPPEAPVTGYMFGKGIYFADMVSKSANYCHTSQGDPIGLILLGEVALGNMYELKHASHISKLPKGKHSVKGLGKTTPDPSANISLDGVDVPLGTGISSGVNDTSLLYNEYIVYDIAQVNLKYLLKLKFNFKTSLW
Assay: PARP1 probe displacement HTRF assay
Conditions: read-out: PARP1 HTRF; binned Kd, probe displacement HTRF
readout.name: Kd

CNC(=O)c1ccc(N2CCC(N3CCC(c4cc5cccc(OC)c5c(=O)[nH]4)C3)CC2)cn1 (single isomer, unassigned) [Compound 249a] :: 1000 to 10000 nM
CNC(=O)c1ccc(N2CCC(N3CCC(c4cc5c(F)ccc(F)c5c(=O)[nH]4)C3)CC2)c(F)n1 (single isomer, unassigned) [Compound 323a] :: < 10 nM
CCCc1ccc(C2CCN(C3CCN(c4ccc(C(=O)NC)nc4F)CC3)C2)[nH]c1=O (single isomer, unassigned) [Compound 269a] :: < 10 nM
CCc1ccc(C2CCN(C3CCN(c4ccc(C(=O)NCC(F)(F)F)nc4F)CC3)C2)[nH]c1=O (single isomer, unassigned) [Compound 285b] :: < 10 nM
CCc1ccc(C2CCN(C3CCN(c4ccc(C(=O)NC)nc4Cl)CC3)C2)[nH]c1=O (single isomer, unassigned) [Compound 239b] :: < 10 nM

Please find the next compound below.
Input N#Cc1ccc(N2CCC(N3CCC(c4cc5ccc(F)cc5c(=O)[nH]4)C3)CC2)c(F)c1 (single isomer, unassigned) [Compound 385b] . Output Kd: < 10 nM

* * *

Biological target: full length N-terminally FLAG-tagged PARP1 (Homo sapiens, UniProt P09874)
Experiment: PARP1 probe displacement HTRF assay
Conditions: read-out: PARP1 HTRF; binned Kd, PARP1 probe displacement HTRF
Reported Kd values for a set of compounds

CNC(=O)c1ccc(N2CCC(N3CCC(c4cc5ccc(F)cc5c(=O)[nH]4)C3)CC2)c(F)n1 (single isomer, unassigned) [Compound 174b] :: < 10 nM
N#Cc1ccc(N2CCC(N3CCCC(c4nc5ccccc5c(=O)[nH]4)C3)CC2)cc1 (single isomer, unassigned) [Compound 79a] :: 10 to 100 nM
CNC(=O)c1ccc(N2CCC(N3CCC(c4cc5ncccc5c(=O)[nH]4)C3)CC2)cn1 (single isomer, unassigned) [Compound 218a] :: 10 to 100 nM
N#Cc1ccc(N2CCC(N3CCC(c4nc5ccccc5c(=O)[nH]4)C3)CC2)cc1 (single isomer, unassigned) [Compound 34a] :: 10 to 100 nM

Input N#Cc1ccc(N2CCC(N3CCCC(c4nc5ccccc5c(=O)[nH]4)C3)CC2)nc1 (single isomer, unassigned) [Compound 74a] . Output Kd: 100 to 1000 nM

Input CNC(=O)c1ccc(N2CCC(N3CCC(c4nc5ccc(C(F)(F)F)cc5c(=O)[nH]4)C3)CC2)cn1 (single isomer, unassigned) [Compound 161a] . Output Kd: 100 to 1000 nM

* * *

Biological target: full length N-terminally FLAG-tagged PARP1 (Homo sapiens, UniProt P09874)
Experiment: PARP1 probe displacement HTRF assay
Details: read-out: PARP1 HTRF; binned Kd, probe displacement HTRF
pKd: −log10 of the molar value.
readout.name: pKd

CNC(=O)c1ccc(N2CCC(N3CCC(c4cnc(C(F)(F)F)c(=O)[nH]4)C3)CC2)cn1 (single isomer, unassigned) [Compound 279b] :: 5.00 to 6.00

Input CNC(=O)c1ccc(N2CCC(N3CCC(c4nc5[nH]nc(C(F)(F)F)c5c(=O)[nH]4)C3)CC2)c(F)n1 (single isomer, unassigned) [Compound 267b] . Output pKd: > 8.00

Input CCc1cc(Cl)c(C2CCN(C3CCN(c4ccc(C(=O)NC)nc4)CC3)C2)[nH]c1=O (racemic) [Compound 255rac] . Output pKd: > 8.00

* * *

Target: full length N-terminally FLAG-tagged PARP1 (Homo sapiens)
Experiment: PARP1 biochemical DELFIA assay (auto-PARylation)
Set-up: recombinant full length human N-terminally FLAG-tagged PARP1
Settings: binned IC50, biochemical auto-PARylation assay
readout.name: IC50

Field: example entries. Status: answers known.
CNC(=O)c1ncc(N2CCC(N3CCC(c4cc5ccc(F)cc5c(=O)[nH]4)C3)CC2)c(C)n1 (single isomer, unassigned) [Compound 265a] :: < 10 nM
CNC(=O)c1cc(C(F)(F)F)c(N2CCC(N3CCC(c4cc5cccc(F)c5c(=O)[nH]4)C3)CC2)cn1 (single isomer, unassigned) [Compound 308a] :: 100 to 1000 nM
CNC(=O)c1ccc(N2CCC(N3CCC(c4cc5c(c(C(F)(F)F)nn5C)c(=O)[nH]4)C3)CC2)c(F)n1 (single isomer, unassigned) [Compound 407a] :: 10 to 100 nM
O=c1[nH]c(C2CCN(C3CCN(c4ccc(OC(F)F)nc4)CC3)C2)cc2ccc(F)cc12 (single isomer, unassigned) [Compound 374a] :: 10 to 100 nM

Input CNC(=O)c1ccc(N2CCC(N3CCC(c4ccc(CCOC)c(=O)[nH]4)C3)CC2)cn1 (single isomer, unassigned) [Compound 240b] . Output IC50: 1000 to 10000 nM

Input CC(=O)NC(=O)c1ccc(N2CCC(N3CCC(c4cc5ccccc5c(=O)[nH]4)C3)CC2)cn1 (single isomer, unassigned) [Compound 333a] . Output IC50: < 10 nM

Input CNC(=O)c1ncc(N2CCC(N3CCC(c4cc5ccc(F)cc5c(=O)[nH]4)C3)CC2)c(C)n1 (single isomer, unassigned) [Compound 265b] . Output IC50: < 10 nM

Input CCc1ccc(C2CCN(C3CCN(c4ccc(C(=O)NC)cc4F)CC3)C2)[nH]c1=O (single isomer, unassigned) [Compound 366b] . Output IC50: < 10 nM
